System: GCase (GBA) in human fibroblast cell line GM10915 harboring the L444P GBA mutation (Homo sapiens, UniProt P04062, L483P)
Construct: Human fibroblast cell line GM10915 harboring the L444P GBA mutation; host or cells: GM10915 human fibroblasts
Protocol text: GCase activity assay (4-MUG substrate, normalised to crystal violet staining) in L444P GBA fibroblasts
Assay type: cell-based
Protocol conditions: concentration giving 150% GCase activity (1.5-fold induction), 5 days exposure, 8-point dose range
Experimental endpoint: GBA EC1.5 (µM)

See these solved cases before continuing.
- Molecule: "CC1ON=C(C2CCNC2)OC1CN1CCCCC1 (racemic) [compound 616]"
  GBA EC1.5 (µM): 6
- Molecule: "CN1CC2(C1)CN(CC1CON=C(C3(C)CCNCC3)O1)C2 (stereo not shown) [compound 580]"
  GBA EC1.5 (µM): 50
- Molecule: "C[C@@H]1ON=C(C2(C)CCNCC2)O[C@H]1CN1CCCCC1 [compound 887]"
  GBA EC1.5 (µM): 5

[I] CN(C)C(=O)CN1CCCC(C2=NOCC(CN3CCCCC3)O2)C1 (racemic) [compound 710]
[II] OC1CCC(C2=NOCC(CN3CCCCC3)O2)CC1 (stereo not shown) [compound 609]
Prompt: Given the listed records, identify the one among I and II with higher GBA EC1.5. Your choice should be expressed through its label.
Response: II

[P] COC1CNCC(C2=NOCC(CN3CCCCC3)O2)C1 (racemic) [compound 680]
[Q] CN1CCC(C2=NOCC(C)(CN3CCCCC3)O2)CC1 (stereo not shown) [compound 870]
Prompt: Sorting ascending by GBA EC1.5, which comes first: P or Q ? Your choice should be expressed through its label.
Response: Q

----------
System: GCase (GBA) in human fibroblast cell line GM10915 harboring the L444P GBA mutation (Homo sapiens, UniProt P04062, L483P)
Construct: Human fibroblast cell line GM10915 harboring the L444P GBA mutation; host or cells: GM10915 human fibroblasts
Protocol text: GCase activity assay (4-MUG substrate, normalised to crystal violet staining) in L444P GBA fibroblasts
Format: cell-based
Protocol conditions: concentration giving 150% GCase activity (1.5-fold induction), 5 days exposure, 8-point dose range
Experimental endpoint: GBA EC1.5 (µM)

See these solved cases before continuing.
- Molecule: "COc1cc(C)c(CC2(C3=NOCC(CN4CCCCC4)O3)CCNCC2)cn1 (stereo not drawn)"
  Experimental endpoint: "GBA EC1.5"
  Result: 50
- Molecule: "CN1[C@@H]2CC[C@H]1CN(CC1CON=C(C3(C)CCNCC3)O1)C2 (stereo partly drawn)"
  Experimental endpoint: "GBA EC1.5"
  Result: 50
- Molecule: "C1CCN(CC2CON=C(C3C4CNC3C4)O2)CC1 (racemic)"
  Experimental endpoint: "GBA EC1.5"
  Result: 21
- Molecule: "CC1NCCC1C1=NOCC(CN2CCCCC2)O1 (racemic)"
  Experimental endpoint: "GBA EC1.5"
  Result: 16
- Molecule: "C1CCN(CC2CON=C(CC3CNCCO3)O2)CC1 (stereo not drawn)"
  Experimental endpoint: "GBA EC1.5"
  Result: 6
- Molecule: "N[C@H]1CN[C@@H](C2=NOCC(CN3CCCCC3)O2)C1 (stereo partly drawn)"
  Experimental endpoint: "GBA EC1.5"
  Result: 50

[I] CN(C)C(=O)N1CCCC1C1=NOCC(CN2CCCCC2)O1 (stereo not drawn)
[II] COC1CN(C(C)C)CCC1C1=NOCC(CN2CCCCC2)O1 (racemic)
[III] C[C@@]1(C2=NOC[C@H](CN3CCCCC3)O2)CCCNC1
Prompt: // sort entries: GBA EC1.5, high to low Response field: labels, in requested order.
Response: I, II, III
(I: 50 µM, II: 16 µM, III: 5 µM)

----------
System: GCase (GBA) in human fibroblast cell line GM10915 harboring the L444P GBA mutation (Homo sapiens, UniProt P04062, L483P)
Construct: Human fibroblast cell line GM10915 harboring the L444P GBA mutation; host or cells: GM10915 human fibroblasts
Protocol text: GCase activity assay (4-MUG substrate, normalised to crystal violet staining) in L444P GBA fibroblasts
Assay type: cell-based
Protocol conditions: concentration giving 150% GCase activity (1.5-fold induction), 5 days exposure, 8-point dose range
Experimental endpoint: GBA EC1.5 (µM)

See these solved cases before continuing.
- Molecule: "c1cncc(CC2(C3=NOCC(CN4CCCCC4)O3)CCOCC2)c1 (stereo not drawn) [compound 552]"
  Unit descriptor: "µM"
  GBA EC1.5: 50
- Molecule: "FC(F)(F)CN1CCCC(C2=NOCC(CN3CCCCC3)O2)C1 (stereo not drawn) [compound 570]"
  Unit descriptor: "µM"
  GBA EC1.5: 50
- Molecule: "CN(C)C(=O)N1CCC(C2=NOCC(CN3CCCCC3)O2)C1 (stereo not drawn) [compound 675]"
  Unit descriptor: "µM"
  GBA EC1.5: 50
- Molecule: "CN1CCC2CN(CC3CON=C(C4(C)CCNCC4)O3)CC2C1 (stereo not drawn) [compound 602]"
  Unit descriptor: "µM"
  GBA EC1.5: 50
- Molecule: "C1CCN(CC2CON=C(C34CCCN(CC3)C4)O2)CC1 (racemic) [compound 553]"
  Unit descriptor: "µM"
  GBA EC1.5: 4

[a] c1csc(N2CCC(C3=NOCC(CN4CCCCC4)O3)CC2)n1 (stereo not drawn) [compound 635]
[b] c1cn2c(n1)CC(C1=NOCC(CN3CCCCC3)O1)CC2 (racemic) [compound 660]
Prompt: Given the listed records, identify the one among a and b with higher GBA EC1.5. Your choice should be expressed through its label.
Response: a
(a: 50 µM, b: 9 µM)

----------
System: GCase (GBA) in human fibroblast cell line GM10915 harboring the L444P GBA mutation (Homo sapiens, UniProt P04062, L483P)
Construct: Human fibroblast cell line GM10915 harboring the L444P GBA mutation; host or cells: GM10915 human fibroblasts
Sequence (P04062 40-536 L483P): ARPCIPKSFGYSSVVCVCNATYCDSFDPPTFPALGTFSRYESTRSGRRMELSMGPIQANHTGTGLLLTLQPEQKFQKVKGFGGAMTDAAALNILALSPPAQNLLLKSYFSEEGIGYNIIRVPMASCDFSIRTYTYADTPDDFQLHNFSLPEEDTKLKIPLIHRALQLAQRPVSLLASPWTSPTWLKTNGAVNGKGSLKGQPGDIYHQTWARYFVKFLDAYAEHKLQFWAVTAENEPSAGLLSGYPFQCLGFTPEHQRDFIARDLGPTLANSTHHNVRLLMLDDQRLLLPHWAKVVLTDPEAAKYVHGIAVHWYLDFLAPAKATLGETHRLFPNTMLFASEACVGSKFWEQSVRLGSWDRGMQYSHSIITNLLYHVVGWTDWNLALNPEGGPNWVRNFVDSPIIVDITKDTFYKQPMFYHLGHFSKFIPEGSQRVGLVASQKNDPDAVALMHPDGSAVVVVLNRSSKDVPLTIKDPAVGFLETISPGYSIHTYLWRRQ
Protocol text: GCase activity assay (4-MUG substrate, normalised to crystal violet staining) in L444P GBA fibroblasts
Assay type: cell-based
Protocol conditions: concentration giving 150% GCase activity (1.5-fold induction), 5 days exposure, 8-point dose range
Experimental endpoint: GBA EC1.5 (µM)

- Compound: "CN1CC(C2=NOCC(CN3CCCCC3)N2)CC1=O (stereo not drawn)"
  GBA EC1.5 / µM: 50
- Compound: "c1cncc(CC2(C3=NOCC(CN4CCCCC4)O3)CCNC2)c1 (racemic)"
  GBA EC1.5 / µM: 18
- Compound: "CC(C)C1ON=C(C2CCNC2)OC1CN(C)C (racemic)"
  GBA EC1.5 / µM: 28
- Compound: "c1ccc(N2CCCC(C3=NOCC(CN4CCCCC4)O3)C2)nc1 (stereo not drawn)"
  GBA EC1.5 / µM: 50
- Compound: "CC(=O)N1CCCC1C1=NOCC(CN2CCCCC2)O1 (stereo not drawn)"
  GBA EC1.5 / µM: 50

[I] CN(C)C12CCC(C3=NOCC(CN4CCCCC4)O3)(CC1)CC2 (racemic)
[II] NCC(=O)N1CCC(C2=NOCC(CN3CCCCC3)O2)C1 (racemic)
Prompt: Given the listed records, identify the one among I and II with higher GBA EC1.5. Your choice should be expressed through its label.
Response: II

----------
System: GCase (GBA) in human fibroblast cell line GM10915 harboring the L444P GBA mutation (Homo sapiens, UniProt P04062, L483P)
Construct: Human fibroblast cell line GM10915 harboring the L444P GBA mutation; host or cells: GM10915 human fibroblasts
Protocol text: GCase activity assay (4-MUG substrate, normalised to crystal violet staining) in L444P GBA fibroblasts
Assay type: cell-based
Protocol conditions: concentration giving 150% GCase activity (1.5-fold induction), 5 days exposure, 8-point dose range
Experimental endpoint: GBA EC1.5 (µM)

- Molecule: "C1CCN(CC2CON=C(C34CCN(CC3)C4)O2)CC1 (racemic)"
  GBA EC1.5 [µM]: 3
- Molecule: "CC1(C2=NOC[C@@H](CN3CCCCC3)O2)CCNCC1 [compound 892]"
  GBA EC1.5 [µM]: 13
- Molecule: "c1ccc(N2CCC(C3=NOCC(CN4CCCCC4)O3)C2)nc1 (stereo not shown)"
  GBA EC1.5 [µM]: 50

[P] C1CCN(CC2CON=C([C@@]34CNC[C@@H]3C4)O2)CC1 (relative stereo)
[Q] CC(C)(C1=NOCC(CN2CCCCC2)O1)C1CCNC1 (racemic)
Prompt: Given the listed records, identify the one among P and Q with higher GBA EC1.5. Your choice should be expressed through its label.
Response: Q
